meta.source: patent US8895695B2

- Test details: in vitro
- Type: in vitro ADME
- Assay context: human, plasma
Bridge positions count the residues as written; N and C are the ends. Square brackets hold non-standard residues; d marks the D form. Peptide text beside a SMILES is read from it. 2Nal = N[C@@H](Cc1ccc2ccccc2c1)C(=O)O; Cit = NC(=O)NCCC[C@H](N)C(=O)O

{"Compound": "N=C(N)NCCC[C@@H]1NC(=O)[C@@H]2CSSC[C@H](NC(=O)[C@H](Cc3ccc4ccccc4c3)NC(=O)[C@H](CCCNC(=N)N)NC(=O)[C@H](CCCNC(=N)N)NC(=O)[C@H]3CCCN3C(=O)CNC1=O)C(=O)N[C@@H](Cc1ccc(O)cc1)C(=O)N[C@@H](CCC(N)=O)C(=O)N[C@@H](CCCCN)C(=O)N1CCC[C@@H]1C(=O)N1CCC[C@H]1C(=O)N[C@@H](CCC(=O)O)C(=O)N[C@@H](CCCNC(=N)N)C(=O)N[C@@H](CCCNC(N)=O)C(=O)N2 [Ex. 68] (cyclo(ER[Cit]CRG[dP]RR[2Nal]CYQK[dP]P); disulfide 4-11)", "Qualifier": "=", "half-life at 10 μM / h": 2.12}
{"Compound": "N=C(N)NCCC[C@@H]1NC(=O)[C@@H]2CSSC[C@H](NC(=O)[C@H](Cc3ccc4ccccc4c3)NC(=O)[C@H](CCCNC(=N)N)NC(=O)[C@H](CCCNC(=N)N)NC(=O)[C@H]3CCCN3C(=O)CNC1=O)C(=O)N[C@@H](Cc1ccc(O)cc1)C(=O)N[C@@H](CCC(N)=O)C(=O)N[C@@H](CCC(N)=O)C(=O)N1CCC[C@@H]1C(=O)N1CCC[C@H]1C(=O)N[C@@H](Cc1ccc(O)cc1)C(=O)N[C@@H](CCCNC(=N)N)C(=O)N[C@@H](CCCNC(N)=O)C(=O)N2 [Ex. 60] (cyclo(YR[Cit]CRG[dP]RR[2Nal]CYQQ[dP]P); disulfide 4-11)", "Qualifier": ">", "half-life at 10 μM / h": 5}
